system: Mycolicibacterium smegmatis; assay: Antimycobacterial activity against Mycobacterium smegmatis DSM 43465 after 120 hr by resazurin dye based microdilution method; assay type: functional; conditions: DSM 43465, 120 h
Reported Endpoint: MIC

# annotated cases, reported MIC shown
smiles_code=O=C(NC1CCCCC1)Oc1ccc(Cl)cc1C(=O)Nc1ccc(F)cc1 result="3.91 µg/mL"
smiles_code=O=C(NC12CC3CC(CC(C3)C1)C2)Oc1ccc(Cl)cc1C(=O)Nc1ccc(Cl)cc1 result="3.91 µg/mL"
smiles_code=O=C(NC1CCCCC1)Oc1ccc(Cl)cc1 result="≥ 500 µg/mL"
smiles_code=NNC(=O)c1ccncc1 result="15.6 µg/mL"

I have 7 compounds here; please give me MIC for each one.
1. O=C(NCc1ccccc1)Oc1ccc(Cl)cc1
2. O=C(NC12CC3CC(CC(C3)C1)C2)Oc1ccc(Cl)cc1C(=O)Nc1ccc(C(F)(F)F)cc1
3. O=C(NCc1ccccc1)Oc1ccc(Cl)cc1C(=O)Nc1ccc(Cl)cc1
4. O=C(Nc1ccccc1)Oc1ccc(Cl)cc1C(=O)Nc1ccc(Br)cc1
5. O=C(NC12CC3CC(CC(C3)C1)C2)Oc1ccccc1C(=O)Nc1ccccc1
6. O=C(NC1CCCCC1)Oc1ccc(Cl)cc1C(=O)Nc1ccc(C(F)(F)F)cc1
7. O=C(NC1CCCCC1)Oc1ccc(Cl)cc1C(=O)Nc1ccc(Br)cc1

Result:
1. 152 µg/mL
2. 4 µM
3. 1.56 µg/mL
4. 1.56 µg/mL
5. 250 µg/mL
6. ≤ 0.88 µM
7. 1.56 µg/mL
